Recorded values, source ChEMBL document CHEMBL3301361.

assay: physchem
pKa by entry:
Write no unit; give the number alone.

1. O=C([C@H]1CCCCN1)N1CCN(c2nc(NCc3ccc(Cl)cc3Cl)c3cccnc3n2)CC1: 5.7
2. CC(C)N1CCN(Cc2cnc(-c3cc(-c4cccc5[nH]ccc45)cc4[nH]ncc34)o2)CC1: 2.4

Query: Using the record for Clc1ccc2c(c1)CCc1cccnc1C2=C1CCNCC1 , state its measured pKa.
Response: 4.57

Query: Using the record for Cc1nnc(C(C)C)n1[C@H]1C[C@H]2CC[C@@H](C1)N2CC[C@H](NC(=O)C1CCC(F)(F)CC1)c1ccccc1 , state its measured pKa.
Response: 2.4

Query: Using the record for O=C(O)C(c1ccccc1)N1CCC(N2CCC(Oc3ccc(Cl)c(Cl)c3)CC2)CC1 (centres undefined) , state its measured pKa.
Response: 6.5

Query: Using the record for N=C(N)SCCc1cccc(CCSC(=N)N)c1 , state its measured pKa.
Response: 9.1

Query: Using the record for COc1cc2nc(-c3ccc(N4CCN(C)CC4)cc3)nc(NCCN3CCOCC3)c2cc1OC , state its measured pKa.
Response: 6.78

Query: Using the record for COc1ccnc(CSc2nc3ccccc3[nH]2)c1 , state its measured pKa.
Response: 3

Query: Using the record for CN1CCN(C2=Nc3cc(Cl)ccc3Nc3ccccc32)CC1 , state its measured pKa.
Response: 3.99
